Target: mu opiate receptor (Rattus norvegicus, UniProt P33535)
Construct: from tissue; host or cells: rat brain membranes/homogenate
Sequence (P33535 whole entry): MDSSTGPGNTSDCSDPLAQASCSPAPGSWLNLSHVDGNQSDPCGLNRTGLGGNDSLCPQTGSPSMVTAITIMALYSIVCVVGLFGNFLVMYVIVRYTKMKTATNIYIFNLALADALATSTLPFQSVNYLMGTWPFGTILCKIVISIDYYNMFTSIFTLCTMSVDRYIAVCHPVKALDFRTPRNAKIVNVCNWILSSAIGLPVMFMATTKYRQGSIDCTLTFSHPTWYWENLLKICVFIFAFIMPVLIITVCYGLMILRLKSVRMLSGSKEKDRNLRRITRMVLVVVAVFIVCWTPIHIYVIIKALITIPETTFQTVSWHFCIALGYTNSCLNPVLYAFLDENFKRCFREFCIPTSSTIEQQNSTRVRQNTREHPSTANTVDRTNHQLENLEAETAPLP
Assay: Inhibition of [3H]DAMGO binding to the mu opiate receptor in rat brain homogenates
Details: [3H]DAMGO bound; 0.08 mg of compound per milliliter, 7 nM 3H-labeled DAMGO, rat brain membranes
reported.metric: % Bound (%)
The reply should be a number in %, with the unit left off.

INSERT INTO results (molecule, target_or_system, value) VALUES
  ('Cc1ncc2n1C(C(C)C)C(=O)N2 (stereo not drawn)', 'mu opiate receptor (Rattus norvegicus, UniProt P33535)', 68),
  ('CC(C)c1nc(CC23CC4CC(CC(C4)C2)C3)n2c1NC(=O)C2C(C)C (stereo not drawn)', 'mu opiate receptor (Rattus norvegicus, UniProt P33535)', 65),
  ('CC(C)c1nc(CC(C)(C)C)n2c1NC(=O)C2C(C)C (stereo not drawn)', 'mu opiate receptor (Rattus norvegicus, UniProt P33535)', 72);

Task item: Can you share its % Bound? I mean this molecule: Cc1cccc(Cc2nc(C(C)C)c3n2C(C(C)C)C(=O)N3)c1 (racemic)
Reply: 68

Task item: Can you share its % Bound? I mean this molecule: Cc1nc(C)n2c1NC(=O)C2C(C)C (stereo not drawn) [Pool 51]
Reply: 62

Task item: Can you share its % Bound? I mean this molecule: CCC(C)C1C(=O)Nc2c(C(C)C)nc(C)n21 (stereo not drawn) [Pool 21]
Reply: 55

Task item: Can you share its % Bound? I mean this molecule: CSCCc1nc(C)n2c1NC(=O)C2C(C)C (racemic)
Reply: 59

Task item: Can you share its % Bound? I mean this molecule: CC(C)c1nc(C(C2CCCCC2)C2CCCCC2)n2c1NC(=O)C2C(C)C (stereo not drawn)
Reply: 65

Task item: Can you share its % Bound? I mean this molecule: CC1CCC(Cc2nc(C(C)C)c3n2C(C(C)C)C(=O)N3)CC1 (stereo not drawn)
Reply: 48

Task item: Can you share its % Bound? I mean this molecule: CC(C)c1nc(C(C)(C)C)n2c1NC(=O)C2C(C)C (stereo not drawn)
Reply: 65

Task item: Can you share its % Bound? I mean this molecule: CC(C)c1nc(Cc2ccccc2)n2c1NC(=O)C2C(C)C (racemic)
Reply: 54

Task item: Can you share its % Bound? I mean this molecule: CCC(C)C1C(=O)Nc2c(C(C)C)nc(C)n21 (stereo not drawn) [Pool 5]
Reply: 78

Task item: Can you share its % Bound? I mean this molecule: CCCC1C(=O)Nc2c(C(C)C)nc(C)n21 (stereo not drawn) [Pool 12]
Reply: 72

Task item: Can you share its % Bound? I mean this molecule: Cc1nc(CCCNC(=N)N)c2n1C(C(C)C)C(=O)N2 (stereo not drawn)
Reply: 29

Task item: Can you share its % Bound? I mean this molecule: CC(C)CCc1nc(C(C)C)c2n1C(C(C)C)C(=O)N2 (stereo not drawn)
Reply: 63

====

// % Inhibition lookup, one value per entry
Biological target: kappa opiate receptor (Cavia porcellus, UniProt P41144)
Construct: guinea pig cortices and cerebella were homogenized in 40 mL of Buffer A; from tissue; host or cells: guinea pig cortices and cerebella, crude membrane suspension
Sequence (P41144 whole entry): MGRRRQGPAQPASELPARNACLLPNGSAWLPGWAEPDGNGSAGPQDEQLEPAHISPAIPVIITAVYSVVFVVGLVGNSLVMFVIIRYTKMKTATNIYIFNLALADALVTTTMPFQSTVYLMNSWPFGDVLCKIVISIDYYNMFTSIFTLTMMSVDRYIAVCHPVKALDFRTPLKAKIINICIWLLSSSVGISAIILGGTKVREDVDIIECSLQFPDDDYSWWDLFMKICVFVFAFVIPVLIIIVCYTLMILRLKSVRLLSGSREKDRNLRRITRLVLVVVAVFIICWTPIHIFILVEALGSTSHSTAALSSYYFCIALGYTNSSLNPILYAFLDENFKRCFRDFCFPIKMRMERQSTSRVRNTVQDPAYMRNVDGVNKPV
Assay: Inhibition of tritiated U69,593 binding to the kappa opiate receptor in guinea pig brain homogenates
Settings: inhibition of [3H]U69,593 binding; 3 nm tritiated U69,593, guinea pig brain membranes
The reply should be a number in %, with the unit left off.

Study these solved cases before continuing.
INSERT INTO measurements (compound, target_or_system, reported_metric, value) VALUES
  ('CC(C)c1nc(C2CCCCC2)n2c1NC(=O)C2C(C)C (stereo not drawn) [Pool 137]', 'kappa opiate receptor (Cavia porcellus, UniProt P41144)', '% Inhibition', '−29.619'),
  ('Cc1ccc(Cc2nc(C(C)C)c3n2C(C(C)C)C(=O)N3)cc1 (racemic) [Pool 74]', 'kappa opiate receptor (Cavia porcellus, UniProt P41144)', '% Inhibition', 51.713),
  ('COc1ccc(Cc2nc(C(C)C)c3n2C(C(C)C)C(=O)N3)cc1OC (racemic) [Pool 87]', 'kappa opiate receptor (Cavia porcellus, UniProt P41144)', '% Inhibition', 18.663),
  ('Cc1nc(CCCCN)c2n1C(C(C)C)C(=O)N2 (stereo not drawn) [Pool 41]', 'kappa opiate receptor (Cavia porcellus, UniProt P41144)', '% Inhibition', 48.147),
  ('CCCCCCc1nc(C(C)C)c2n1C(C(C)C)C(=O)N2 (racemic) [Pool 122]', 'kappa opiate receptor (Cavia porcellus, UniProt P41144)', '% Inhibition', 48.195),
  ('Cc1nc(CC2CCCCC2)c2n1C(C(C)C)C(=O)N2 (stereo not drawn) [Pool 46]', 'kappa opiate receptor (Cavia porcellus, UniProt P41144)', '% Inhibition', '−21.815'),
  ('Cc1nc(C(C)C)c2n1C(C(C)C)C(=O)N2 (stereo not drawn) [Pool 19]', 'kappa opiate receptor (Cavia porcellus, UniProt P41144)', '% Inhibition', 15.420),
  ('CC(C)c1nc(CCCC2CCCCC2)n2c1NC(=O)C2C(C)C (stereo not drawn) [Pool 140]', 'kappa opiate receptor (Cavia porcellus, UniProt P41144)', '% Inhibition', 50.097),
  ('CCCc1nc(C(C)C)c2n1C(C(C)C)C(=O)N2 (racemic) [Pool 121]', 'kappa opiate receptor (Cavia porcellus, UniProt P41144)', '% Inhibition', 39.532),
  ('CSCCc1nc(C)n2c1NC(=O)C2C(C)C (racemic) [Pool 59]', 'kappa opiate receptor (Cavia porcellus, UniProt P41144)', '% Inhibition', 21.047);

Task item: Can you share its % Inhibition? I mean this compound: Cc1nc(C)n2c1NC(=O)C2C(C)C (stereo not drawn) [Pool 35]
Reply: 22.307

Task item: Can you share its % Inhibition? I mean this compound: CC(C)c1nc(CC2CC3CCC2C3)n2c1NC(=O)C2C(C)C (stereo not drawn) [Pool 155]
Reply: 30.960

Task item: Can you share its % Inhibition? I mean this compound: CC(C)c1nc(Cc2cc(C(F)(F)F)cc(C(F)(F)F)c2)n2c1NC(=O)C2C(C)C (racemic) [Pool 82]
Reply: 29.411

Task item: Can you share its % Inhibition? I mean this compound: CC(C)c1nc(C(C)(C)C)n2c1NC(=O)C2C(C)C (stereo not drawn) [Pool 135]
Reply: 30.830

Task item: Can you share its % Inhibition? I mean this compound: Cc1nc(C(C)C)c2n1C(C(C)C)C(=O)N2 (stereo not drawn) [Pool 36]
Reply: 15.024

====

// Mean lookup, one value per entry
Biological target: mu opiate receptor (Rattus norvegicus, UniProt P33535)
Construct: from tissue; host or cells: rat brain membranes/homogenate
Experiment: Inhibition of [3H]DAMGO binding to the mu opiate receptor in rat brain homogenates
Set-up: unit not given beside the values
Details: mean bound radioactivity of [3H]DAMGO; 0.08 mg of compound per milliliter, 7 nM 3H-labeled DAMGO, rat brain membranes

Study these solved cases before continuing.
INSERT INTO results (compound, value) VALUES
  ('CC(C)c1nc(Cc2ccc(-c3ccccc3)cc2)n2c1NC(=O)C2C(C)C (racemic)', 850.4),
  ('Cc1nc(CC(C)C)c2n1C(C(C)C)C(=O)N2 (centres unmarked) [Pool 37]', 932.9);

Task item: Can you share its Mean? I mean this compound: CC(C)c1nc(C2CCC2)n2c1NC(=O)C2C(C)C (centres unmarked)
Reply: 867.3

Task item: Can you share its Mean? I mean this compound: CC(C)c1nc(Cc2ccc(Cl)c(Cl)c2)n2c1NC(=O)C2C(C)C (racemic)
Reply: 988.3

Task item: Can you share its Mean? I mean this compound: Cc1nc(C(C)C)c2n1C(C(C)C)C(=O)N2 (centres unmarked) [Pool 19]
Reply: 1027.75

====

Target: kappa opiate receptor (Cavia porcellus, UniProt P41144)
Construct: guinea pig cortices and cerebella were homogenized in 40 mL of Buffer A; from tissue; host or cells: guinea pig cortices and cerebella, crude membrane suspension
Assay: Inhibition of tritiated U69,593 binding to the kappa opiate receptor in guinea pig brain homogenates
Parameters: unit not given beside the values
Details: mean bound radioactivity of [3H]U69,593; 3 nm tritiated U69,593, guinea pig brain membranes, 2.5 hours 25° C.
// Mean lookup, one value per entry
Reply with just the number.

INSERT INTO assay_data (molecule, target_or_system, reported_metric, value) VALUES
  ('CC(C)c1nc(Cc2ccc(Cl)c(Cl)c2)n2c1NC(=O)C2C(C)C (racemic)', 'kappa opiate receptor (Cavia porcellus, UniProt P41144)', 'Mean', 1831.35),
  ('Cc1cccc(Cc2nc(C(C)C)c3n2C(C(C)C)C(=O)N3)c1 (racemic)', 'kappa opiate receptor (Cavia porcellus, UniProt P41144)', 'Mean', 2019.55),
  ('CC(C)c1nc(Cc2ccccc2)n2c1NC(=O)C2C(C)C (racemic)', 'kappa opiate receptor (Cavia porcellus, UniProt P41144)', 'Mean', 1667.95);

Task item: Give Mean (kappa opiate receptor (Cavia porcellus, UniProt P41144)) of the following molecule: CCC(C)C1C(=O)Nc2c(C(C)C)nc(C)n21 (centres unmarked) [Pool 21]
Reply: 1496.7

Task item: Give Mean (kappa opiate receptor (Cavia porcellus, UniProt P41144)) of the following molecule: Cc1nc(C(C)C)c2n1C(C(C)C)C(=O)N2 (centres unmarked) [Pool 3]
Reply: 1468.8

Task item: Give Mean (kappa opiate receptor (Cavia porcellus, UniProt P41144)) of the following molecule: CC(C)c1nc(Cc2ccc(-c3ccccc3)cc2)n2c1NC(=O)C2C(C)C (racemic)
Reply: 1628.3

Task item: Give Mean (kappa opiate receptor (Cavia porcellus, UniProt P41144)) of the following molecule: CCC(C)c1nc(C(C)C)c2n1C(C(C)C)C(=O)N2 (mixture of isomers)
Reply: 1555.85

Task item: Give Mean (kappa opiate receptor (Cavia porcellus, UniProt P41144)) of the following molecule: CC(C)c1nc(CCCC2CCCCC2)n2c1NC(=O)C2C(C)C (centres unmarked)
Reply: 1424

Task item: Give Mean (kappa opiate receptor (Cavia porcellus, UniProt P41144)) of the following molecule: Cc1nc(C(C)C)c2n1C(Cc1ccccc1)C(=O)N2 (centres unmarked)
Reply: 1682.8

Task item: Give Mean (kappa opiate receptor (Cavia porcellus, UniProt P41144)) of the following molecule: CC(C)Cc1nc(C(C)C)c2n1C(C(C)C)C(=O)N2 (centres unmarked)
Reply: 1553.3

Task item: Give Mean (kappa opiate receptor (Cavia porcellus, UniProt P41144)) of the following molecule: CC(C)c1nc(Cc2cccc(Br)c2)n2c1NC(=O)C2C(C)C (racemic)
Reply: 1588.15

Task item: Give Mean (kappa opiate receptor (Cavia porcellus, UniProt P41144)) of the following molecule: Cc1nc(C(C)C)c2n1C(C(C)C)C(=O)N2 (centres unmarked) [Pool 36]
Reply: 1787.35

Task item: Give Mean (kappa opiate receptor (Cavia porcellus, UniProt P41144)) of the following molecule: CC(C)c1nc(CC23CC4CC(CC(C4)C2)C3)n2c1NC(=O)C2C(C)C (centres unmarked)
Reply: 1723.4

Task item: Give Mean (kappa opiate receptor (Cavia porcellus, UniProt P41144)) of the following molecule: Cc1nc(CC(C)C)c2n1C(C(C)C)C(=O)N2 (centres unmarked) [Pool 53]
Reply: 2008.85

Task item: Give Mean (kappa opiate receptor (Cavia porcellus, UniProt P41144)) of the following molecule: Cc1nc(C)n2c1NC(=O)C2C(C)C (centres unmarked) [Pool 51]
Reply: 1645.8

Task item: Give Mean (kappa opiate receptor (Cavia porcellus, UniProt P41144)) of the following molecule: CCC(C)c1nc(C)n2c1NC(=O)C2C(C)C (centres unmarked) [Pool 38]
Reply: 1618.1

Task item: Give Mean (kappa opiate receptor (Cavia porcellus, UniProt P41144)) of the following molecule: CCC(C)c1nc(C)n2c1NC(=O)C2C(C)C (centres unmarked) [Pool 54]
Reply: 1947.25

Task item: Give Mean (kappa opiate receptor (Cavia porcellus, UniProt P41144)) of the following molecule: CC1CCC(Cc2nc(C(C)C)c3n2C(C(C)C)C(=O)N3)CC1 (centres unmarked)
Reply: 1515.1

Task item: Give Mean (kappa opiate receptor (Cavia porcellus, UniProt P41144)) of the following molecule: CC(C)c1nc(C2(c3ccccc3)CC2)n2c1NC(=O)C2C(C)C (racemic)
Reply: 1784.1

Task item: Give Mean (kappa opiate receptor (Cavia porcellus, UniProt P41144)) of the following molecule: CC(C)c1nc(C2CCCC2)n2c1NC(=O)C2C(C)C (centres unmarked)
Reply: 1544.15
